# pIC50 values compiled below
biological target: DPP-IV (Homo sapiens, UniProt P27487); construct: Soluble human DPP-IV lacking the transmembrane anchor (Gly31-Pro766); Pre-Pro-alpha-mating factor leader (secretion signal) (N, cleaved yes); made in house; experiment: Continuous fluorimetric assay of DPP-IV peptidase activity (Gly-Pro-AMC cleavage); format: biochemical; conditions: 50 pM DPP-IV, 16 μM Gly-Pro-AMC, pH 7.4, 25° C., 1% DMSO; values grouped in 3 classes; read-out: IC50 for inhibition of DPP-IV peptidase activity
Sequence (P27487 31-766): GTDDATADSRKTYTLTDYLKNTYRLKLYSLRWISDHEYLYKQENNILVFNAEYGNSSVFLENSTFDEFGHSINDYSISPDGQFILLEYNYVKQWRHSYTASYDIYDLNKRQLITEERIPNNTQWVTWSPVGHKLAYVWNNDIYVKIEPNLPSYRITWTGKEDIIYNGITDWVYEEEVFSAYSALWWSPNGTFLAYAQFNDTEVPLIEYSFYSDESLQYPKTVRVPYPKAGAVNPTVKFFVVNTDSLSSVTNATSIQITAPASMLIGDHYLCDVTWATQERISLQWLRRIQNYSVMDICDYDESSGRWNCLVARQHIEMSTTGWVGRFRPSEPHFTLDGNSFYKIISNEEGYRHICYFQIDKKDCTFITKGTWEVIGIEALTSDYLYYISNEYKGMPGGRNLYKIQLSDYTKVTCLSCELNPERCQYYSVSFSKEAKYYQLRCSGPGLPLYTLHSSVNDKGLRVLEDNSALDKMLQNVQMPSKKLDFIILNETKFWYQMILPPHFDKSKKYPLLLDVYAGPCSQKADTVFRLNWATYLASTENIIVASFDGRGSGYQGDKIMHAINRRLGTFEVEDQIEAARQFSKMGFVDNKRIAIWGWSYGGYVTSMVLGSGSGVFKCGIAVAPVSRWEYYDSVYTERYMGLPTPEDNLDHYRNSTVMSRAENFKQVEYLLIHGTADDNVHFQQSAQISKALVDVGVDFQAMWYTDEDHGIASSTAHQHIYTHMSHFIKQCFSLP
pIC50: −log10 of the molar value. Where a name gives a salt, the structure may show the parent alone.

Reference set (6 entries):
# Molecule, Reported measurement
rows = [
    ("N[C@@H](CC(=O)N1Cc2ccccc2CC1COCc1ccccc1)Cc1ccccc1F (some centres unmarked) [Example 14, trifluoroacetate salt]", "≥ 7.00"),
    ("N[C@@H](CC(=O)N1Cc2ccccc2C[C@H]1COc1cccc(F)c1)Cc1ccccc1F [Example 12, trifluoroacetate salt]", "≥ 7.00"),
    ("N[C@@H](CC(=O)N1Cc2ccccc2C[C@H]1CNC(=O)c1ccccc1)Cc1ccccc1F [Example 4, trifluoroacetate salt]", "≥ 7.00"),
    ("N[C@@H](CC(=O)N1Cc2ccccc2C[C@H]1CNC(=O)CO)Cc1ccccc1F [Example 3, trifluoroacetate salt]", "6.00 to 7.00"),
    ("N[C@@H](CC(=O)N1Cc2ccccc2C[C@H]1CNS(=O)(=O)C1CC1)Cc1cccc(Cl)c1 [Example 10, trifluoroacetate salt]", "≥ 7.00"),
    ("CS(=O)(=O)NC[C@@H]1Cc2ccccc2CN1C(=O)C[C@H](N)Cc1ccccc1F [Example 8, trifluoroacetate salt]", "≥ 7.00"),
]

Q. Recall the recorded pIC50 for Cc1cc(C(=O)NC[C@@H]2Cc3ccccc3CN2C(=O)C[C@H](N)Cc2ccccc2F)no1 [Example 5, trifluoroacetate salt] with DPP-IV (Homo sapiens, UniProt P27487) and state it.
A. ≥ 7.00

Q. Recall the recorded pIC50 for N[C@@H](CC(=O)N1Cc2ccccc2C[C@H]1CNC(=O)C1CC1)Cc1ccccc1F [Example 1, trifluoroacetate salt] with DPP-IV (Homo sapiens, UniProt P27487) and state it.
A. 6.00 to 7.00

Q. Recall the recorded pIC50 for CN(C)C[C@@H]1Cc2ccccc2CN1C(=O)C[C@H](N)Cc1ccccc1F [Example 7, trifluoroacetate salt] with DPP-IV (Homo sapiens, UniProt P27487) and state it.
A. 5.70 to 6.00
